# TESTED_SYSTEM: marmoset 17β-HSD1 (Callithrix jacchus)
# Construct: For the partial purification of 17β-HSD1, the cytosolic fraction was precipitated with ammonium sulfate; from tissue; host or cells: marmoset placenta, cytosolic fraction, ammonium sulfate precipitate
# Sequence (Q9GME2 1-314): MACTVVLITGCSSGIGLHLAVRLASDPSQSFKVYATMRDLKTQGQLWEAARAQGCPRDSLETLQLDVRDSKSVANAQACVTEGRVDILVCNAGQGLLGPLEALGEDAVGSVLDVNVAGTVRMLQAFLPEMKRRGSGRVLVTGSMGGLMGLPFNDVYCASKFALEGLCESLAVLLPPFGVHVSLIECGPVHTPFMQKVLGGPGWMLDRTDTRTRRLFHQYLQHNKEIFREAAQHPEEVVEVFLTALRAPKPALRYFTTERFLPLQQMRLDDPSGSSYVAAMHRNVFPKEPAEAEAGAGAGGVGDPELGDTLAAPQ
# MEASUREMENT_DESCRIPTION: Inhibition of marmoset 17β-HSD1 (placental cytosolic fraction, tritiated E1, HPLC)
# Format: biochemical, marmoset monkey (callithrix jacchus)
# MEASUREMENT_CONTEXT: Logit transformed values calculated from % inhibition at 50 nM inhibitor concentration (trend for <30% or >70%); placental cytosolic fraction, substrate E1 500 nM, NADH 500 µM; read-out: Marmoset IC50 17ß-HSD1
# Experimental: Marmoset placental tissue was used as enzyme source and the proteins were partially purified following a described procedure. Tritiated E1 was incubated with 17β-HSD1, cofactor and inhibitor. […] Labelled product was quantified after HPLC separation. […] Inhibitory activities were evaluated by an established method with minor modifications. […] Detection and quantification of the steroids were performed using a radioflow detector (Agilent 1200 Series, Agilent Technologies, Waldbronn). […]
I'd be grateful if you could share measured IC50 for these entries.
Answers are plain numbers, in µM.

Go through the list and state IC50 for each entry.
1. Oc1ccc(-c2ccc(-c3cccc(O)c3)s2)cc1 [Compound 3]
2. Oc1cccc(-c2ccc3c(-c4ccccc4)c(O)ccc3c2)c1 [Compound 17]
3. Oc1cccc(-c2ccc3c(-c4cccc(O)c4)c(O)ccc3c2)c1 [Compound 15]
4. Oc1ccc(-c2cnc(-c3cccc(O)c3)s2)cc1 [Compound 2]

[0.031, 0.052, 0.032, 0.102]
